# Test system: MDA-MB-468 breast
# method_description: NCI-60 one-dose screen, 48 h
# condition_info: 10 µM unless noted
Compounds without any hit were thinned out: in the full panel of roughly 83,000, 20% have a hit. Active and inactive are the calls of the source. Rule for the calls: active = growth percent below 10; inactive = the rest.
Labels: active, inactive

# compound, class_assignment
data = [
    ("COc1ccc(-c2cn3c(ccc4ccccc43)n2)cc1", "inactive"),
    ("CC(/C=C1\\SC(=S)N(CC(=O)NC(Cc2c[nH]c3ccccc23)C(=O)O)C1=O)=C\\c1ccccc1 (stereo unspecified)", "inactive"),
    ("CCOC(=O)c1c(C)c2c(n1Cc1ccccc1)CSCC2=O", "active"),
    ("O=C1/C(=C/c2ccccc2)COc2ccc(O)cc21", "inactive"),
    ("CN(CC(=O)O)c1ccc(/C=C/c2ccnc3ccccc23)cc1", "active"),
    ("O=c1c2c(=NCCN3CCCC3)cc3c(=O)n(CCCN4CCOCC4)c(=O)c4c(-c5ccc(CN6CCCC6)cc5)cc(c(O)n1CCCN1CCOCC1)c2c4-3", "active"),
    ("CCCOC(=O)c1ccc([N+](=O)[O-])o1", "inactive"),
    ("COc1ccc(-c2nc(NCCO)[nH]c(=O)c2C#N)cc1", "inactive"),
    ("CC1CCCN(CCCCCOc2ccc3oc4ccc(Cl)cc4c(=O)c3c2)C1 (stereo unspecified)", "inactive"),
    ("COc1ccc(/C(C)=C(/c2ccc(OCCCN(C)C)cc2)c2ccc(OC(=O)c3ccccc3)cc2)cc1", "inactive"),
    ("COc1ccc(C2=C/C(=C\\c3ccccc3O)C(=O)N2Cc2ccccc2)cc1", "inactive"),
    ("CCCNc1nc(N(C)O)nc(N(C)O)n1", "inactive"),
    ("Clc1ccc2c(NCCCCNc3nc(N4CCCCC4)nc4ccccc34)ccnc2c1", "active"),
    ("COc1cc(-c2ccc(-c3ccc(C(=N)N)cc3)s2)cc(OC)c1OC", "active"),
    ("CC1NC(C)c2ccc3ccccc3c2O1 (stereo unspecified)", "inactive"),
    ("CCOC(=O)c1cnc2c(N=Nc3ccc(OC)cc3)c(N)nn2c1N", "inactive"),
    ("Nc1nc(I)c2ncn(C3OC(CO)C(O)C3O)c2n1 (stereo unspecified)", "inactive"),
    ("CCCCCCCCCCCCCCCCS(=O)(=O)Nc1cc(C(=O)NN)cc(C(=O)NN)c1", "inactive"),
    ("O=C1Nc2c(ccc(Cl)c2Cl)/C1=C\\c1cc(C(F)(F)F)cc(C(F)(F)F)c1", "active"),
    ("CCCCn1c(-c2ccc(F)cc2)nc2cc(OC)c(OC)cc2c1=O", "inactive"),
    ("O=C1OCC2=C1C(c1cccc(Cl)c1)c1cc3c(cc1N2CCO)OCO3 (stereo unspecified)", "active"),
    ("C=C(C[n+]1ccccc1)[C@@H]1CC[C@]2(C(=O)OC)CC[C@]3(C)[C@H](CC[C@@H]4[C@@]5(C)CCC(=O)C(C)(C)[C@@H]5CC[C@]43C)[C@@H]12", "active"),
    ("COc1ccc(C(=O)C(CN(C)C)c2ccccc2)cc1 (stereo unspecified)", "active"),
    ("CC(C)(C)c1cc(C(=O)N2CCC(C(=O)NCCN)CC2)cc(C(C)(C)C)c1", "inactive"),
    ("Cc1ccc(C(=O)N/N=C/c2cccc([N+](=O)[O-])c2)cn1", "inactive"),
    ("Cc1sc2nc(NCCc3c[nH]c4ccc(Cl)cc34)[nH]c(=O)c2c1C", "active"),
    ("CSc1nc(NCCO)c(C#N)c(-c2cccc(N)c2)n1", "inactive"),
    ("CC(C)CCCCCOC(=O)c1ccccc1SSc1ccccc1C(=O)OCCCCCC(C)C", "inactive"),
    ("Clc1cc(Cl)cc(N2N=C(c3cccc(Nc4ccncc4)c3)CC2c2ccccc2)c1 (stereo unspecified)", "inactive"),
    ("CC(=O)Oc1ccccc1C(=O)Nc1ccc(C(=O)/C=C/c2ccncc2)cc1", "active"),
    ("Cc1ccc(NS(=O)(=O)c2ccc(-c3cnc(C4CC4)o3)cc2)cc1C", "active"),
    ("N#Cc1cnc2cc(OC[C@@H](O)CO)c(NC(=O)CC3CSSC3)cc2c1Nc1ccc(OCc2cccc(F)c2)c(Cl)c1", "active"),
    ("CC(=O)C1=C(C)NC(NN)=NC1c1cccc(Cl)c1 (stereo unspecified)", "inactive"),
    ("N#CC1=C(N)Oc2c(sc3c(Br)cccc23)C1c1ccc(Cl)cc1 (stereo unspecified)", "active"),
    ("O=C(O)c1cn(C2CC2)c2cc(N3CCN(C(=O)/C=C/c4ccc(Cl)cc4)CC3)c(F)cc2c1=O", "inactive"),
    ("CN(C)CCS(=O)(=O)CCN(C)C", "inactive"),
    ("Fc1ccc(Nc2ccnc(N3CCN(c4ccnc5cc(Cl)ccc45)CC3)n2)cc1", "inactive"),
    ("Cc1cn(-c2cc(NC(=O)c3cccc(C#Cc4cccc5[nH]nc(N)c45)c3)cc(C(F)(F)F)c2)cn1", "inactive"),
    ("CCCCN(CCCC)CCCCCCCCCCO", "inactive"),
    ("C#Cc1cc(OC)c(C(=O)Nc2ccc(F)cc2C(=O)Nc2cccc(S(=O)(=O)C(F)(F)F)c2)cn1", "active"),
    ("CCC(C)(C)C(=O)O[C@H]1C[C@@H](C)C=C2C=C[C@H](C)[C@H](CC[C@@H]3CC=CC(=O)O3)[C@H]21", "inactive"),
]
